# target-desc: human GLP-1R (Homo sapiens, UniProt P43220)
# Construct: host or cells: COS-7
# Sequence (P43220 24-463): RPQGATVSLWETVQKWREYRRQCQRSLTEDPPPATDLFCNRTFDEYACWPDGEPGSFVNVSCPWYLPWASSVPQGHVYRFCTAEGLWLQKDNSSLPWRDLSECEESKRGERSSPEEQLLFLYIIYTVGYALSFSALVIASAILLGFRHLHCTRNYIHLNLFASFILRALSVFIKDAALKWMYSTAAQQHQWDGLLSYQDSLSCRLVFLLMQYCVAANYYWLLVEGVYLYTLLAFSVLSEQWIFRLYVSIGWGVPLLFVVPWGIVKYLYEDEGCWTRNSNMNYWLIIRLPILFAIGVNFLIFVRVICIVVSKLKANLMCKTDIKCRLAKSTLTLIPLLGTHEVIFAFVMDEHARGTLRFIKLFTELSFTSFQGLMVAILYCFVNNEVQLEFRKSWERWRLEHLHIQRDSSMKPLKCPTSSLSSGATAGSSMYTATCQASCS
# assay-name: HitHunter cAMP assay in transiently transfected COS-7 cells, human GLP-1R
# Format: cell-based
# cond: Emax normalized to highest concentration of endogenous ligand; Table 3
Label key: y means Efficacy GLP-1R under 10; n means Efficacy GLP-1R of 10 or more.

Input (C16)H-Aib-DGTFISDYSTILD-Aib-LAARDFINWLIQTKITK-OH [Compound no. 6] ; condition: Efficacy GLP-1R strictly below 10. Does it hold?
n

Consider the substance H-Aib-DGTFISDYS-K(γGlu-C16)-ILDNLAARDFINWLIQTKITK-OH [Compound no. 12] . Is its Efficacy GLP-1R strictly less than 10?
n

Here's an entry: H-Aib-EG-K(γGlu-C16)-FISDYST-Aib-LDNLAARDFINWLIQTKITK-OH [Compound no. 27] . Is its Efficacy GLP-1R below 10?
y

Is Efficacy GLP-1R of (C16)H-Aib-DGTFISDYST-Aib-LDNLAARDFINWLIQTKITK-OH [Compound no. 5] strictly below 10?
y

Is Efficacy GLP-1R strictly under 10 for the entry H-Aib-DGTFISDYS-K(γGlu-C16)-Aib-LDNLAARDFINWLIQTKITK-OH [Compound no. 35] ?
n

Item (C10)H-Aib-DGTFISDYST-Aib-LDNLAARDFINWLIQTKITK-OH [Compound no. 44] : Efficacy GLP-1R beneath 10, strictly?
n

Record H-Aib-DGTFISDY-K(yglu-C10)-T-Aib-LDNLAARDFINWLIQTKITGNDWKHNITQ-OH [Compound no. 54] : is its Efficacy GLP-1R strictly below 10?
y

Given the entry (C16-diacid)H-Aib-EGTFISDYST-Aib-LDALAARDFINWLIQTKITKNDWKHNITQ-OH [Compound no. 41] , would its reported Efficacy GLP-1R be below 10?
n

Decide: Efficacy GLP-1R of H-Aib-DGTFISDY-K(γGlu-C16)-TILDNLAARDFINWLIQTKITK-OH [Compound no. 11] strictly below 10?
n

Would you kindly verify if Efficacy GLP-1R of H-Aib-DGTFISDY-K(γGlu-C10)-TILDKLAARDFIEWLIATKITK-OH [Compound no. 31] is strictly less than 10?
y

Is Efficacy GLP-1R strictly under 10 for the entry H-Aib-DGTFISDYSTIL-K(γGlu-C16)-NLAARDFINWLIQTKITK-OH [Compound no. 13] ?
y

Dear reviewer, please state whether (C16-diacid)H-Aib-DGTFISDYST-Aib-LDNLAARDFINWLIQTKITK-OH [Compound no. 17] has Efficacy GLP-1R strictly beneath 10.
y

hey, is Efficacy GLP-1R for (C16)HADGTFISDYSTILDAibLAARDFINWLIQTKITKNDWKHNITQ [Compound no. 16] lower than 10 or not?
y

Just wondering, is Efficacy GLP-1R of H-Aib-DG-K(γGlu- γGlu-C10)-FISDYSTILDNLAARDFINWLIQTKITK-OH [Compound no. 26] below 10?
n

Determine if (C16)H-Aib-DGTFISDYSTILDNLAARDFIEWLIQTKIT-OH [Compound no. 8] shows Efficacy GLP-1R strictly lower than 10.
n
